Field: inhibition. Provide a value for each of the compounds that follow.
- targetEntity: L-lactate dehydrogenase (Plasmodium falciparum (isolate CDC / Honduras)) (UniProt Q27743)
- Sequence (Q27743 whole entry, looked up): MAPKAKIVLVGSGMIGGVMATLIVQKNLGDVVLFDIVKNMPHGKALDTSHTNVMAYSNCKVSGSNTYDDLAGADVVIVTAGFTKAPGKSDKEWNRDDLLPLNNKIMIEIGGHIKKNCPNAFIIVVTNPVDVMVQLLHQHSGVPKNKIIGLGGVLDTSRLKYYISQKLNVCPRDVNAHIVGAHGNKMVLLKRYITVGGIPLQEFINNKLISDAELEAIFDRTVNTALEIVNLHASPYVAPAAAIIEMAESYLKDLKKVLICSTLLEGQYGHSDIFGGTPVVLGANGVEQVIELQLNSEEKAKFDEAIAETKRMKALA
- assayMethodText: PfLDH activity inhibition – cell lysate, 3D7 strain, counter-screen for P. falciparum growth inhibition project (AID 2304);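 note: 0% = vehicle and 100% = reference inhibitor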
- recordedConditions: P. falciparum 3D7 crude extract, LDH APAD/NBT absorbance; at 2 µM; hits give high values
Report the value in % with no unit label.

inhibition reported for this compound `Cc1ccc(Nc2nc(N)c3ccccc3n2)cc1` : 8

inhibition reported for this compound `c1ccc(Oc2ccc(Nc3ccnc4cc(-c5cccc(CN6CCOCC6)c5)ccc34)cc2)cc1` : -1

inhibition reported for this compound `O=C(Nc1ccc(OC2CCN(Cc3ccc(F)cc3)CC2)c(Cl)c1)c1ccoc1` : 2

inhibition reported for this compound Cc1ccc(NS(=O)(=O)c2ccc(C(C)N3CCC(N4CCCCC4)CC3)cc2)cc1C (stereo not given) : -2

inhibition reported for this compound `CC1(C)N=C(N)N=C(N)N1OCCOc1cccc(C(F)(F)F)c1` : -2
